Kindly state IC50 for each of the entries shown.
- TEST_SYSTEM: T1, GLP-1 receptor
- T1 chain: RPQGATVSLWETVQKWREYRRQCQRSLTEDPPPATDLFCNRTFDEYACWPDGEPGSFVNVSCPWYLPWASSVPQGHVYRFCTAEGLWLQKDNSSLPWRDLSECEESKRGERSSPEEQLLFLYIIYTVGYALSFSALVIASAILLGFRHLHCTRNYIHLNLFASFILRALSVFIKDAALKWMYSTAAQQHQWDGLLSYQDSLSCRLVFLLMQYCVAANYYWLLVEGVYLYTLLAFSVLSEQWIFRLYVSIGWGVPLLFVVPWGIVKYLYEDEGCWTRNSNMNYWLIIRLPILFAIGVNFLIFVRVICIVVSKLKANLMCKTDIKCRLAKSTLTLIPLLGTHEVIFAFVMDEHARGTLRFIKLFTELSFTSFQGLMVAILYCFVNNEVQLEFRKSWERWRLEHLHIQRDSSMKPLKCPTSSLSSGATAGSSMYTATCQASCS
- EXPERIMENT_DESCRIPTION: competition with 125I-GLP-1 on CHO/GLP-1R cells; polypeptide digested with thrombin and DPP IV first
One number for each entry, in nM.

Illustrative cases are given below, each with its answer.
PDICLPRWGCLWEFNPRGSHAEGTFTSDVSSYLEGQAAKEFIAWLVKGRG (ABP-LK-GLP fusion polypeptide; also called ABP-LK-GLP) [DP3.3 fusion polypeptide]; 2.3
SLLHWTHKIPALFNPRGAHAEGTFTSDVSSYLEGQAAKEFIAWLVKGRG (ABP-LK-GLP fusion polypeptide; also called ABP-LK-GLP) [M8.1 fusion polypeptide]; 2.2

Next binder, IC50 to be filled in.
[ask] For LPHSHRAHSLPPFNPRPAHAEGTFTSDVSSYLEGQAAKEFIAWLVKGRG (ABP-LK-GLP fusion polypeptide; also called ABP-LK-GLP) [PA6.2 fusion polypeptide] , what is its reported IC50?
[reply] 2.2
